# subject_of_test: T1, Peptide-biotin
# T1 construct: also called antigen
# assay_comment: SPR Biacore 8K, purified IgG Fc-captured, Peptide-biotin analyte, 1:1 fit
# Protocol: The affinity of purified antibody binding to Peptide-biotin was individually determined using a Surface Plasmon Resonance (SPR) biosensor, Biacore 8K (GE Healthcare). Antibodies were captured on the sensor chip through Fc capture method. Peptide-biotin was used as the analyte. The data of dissociation (kd) and association (ka) rate constants were obtained using Biacore 8K evaluation software. The equilibrium dissociation constants (KD) were calculated from the ratio of kd over ka.

# binder, kon
data = [
    ("anti-TRPM4 chimeric antibody clone A1 (VH + VL) (antibody, V domains shown, also called VH + VL (A1)) VH: QVQLQESGPGLVKPSQSLSLTCTVTGYSITSDYAWNWIRQFPGNKLQWMGYLSYSGVTSYNPSLKGRISITRDTSKNQFFLQLSSVTPEDTATYYCARKGTYYRYEGSYWYFDVWGAGTTVTVSS VL: DIQMNQSPSSLSASLGDTITITCHANQNIDVWLSWYQQKPGNVPKLLIYKTSNLHTGVPSRFSGSGSGTDFTLTISSLQPEDIATYYCQQGQSYPLTFGGGTKLEIK", "312000 M⁻¹ s⁻¹"),
    ("humanized anti-TRPM4 antibody clone A4 (VH1 + VL3) (antibody, V domains shown, Full-length IgG, IgG1 heavy chain; also called VH1 + VL3 (A4)) VH: QVQLQESGPGLVKPSQTLSLTCTVSGYSITSDYAWNWIRQHPGKGLEWIGYLSYSGVTSYNPSLKGRVTISVDTSKNQFSLKLSSVTAADTAVYYCARKGTYYRYEGSYWYFDVWGQGTTVTVSS VL: DIQMTQSPSSLSASVGDRVTITCHANQNIDVWLSWYQQKPGNAPKLLIYKTSNLHTGVPSRFSGSGSGTDFTFTISSLQPEDIATYYCQQGQSYPLTFGGGTKLEIKR", "195000 M⁻¹ s⁻¹"),
    ("humanized anti-TRPM4 antibody clone A6 (VH2 + VL1) (antibody, V domains shown, Full-length IgG, IgG1 heavy chain; also called VH2 + VL1 (A6)) VH: QVQLQESGPGLVKPSQTLSLTCTVSGYSITSDYAWNWIRQHPGKGLEWMGYLSYSGVTSYNPSLKGRVTISRDTSKNQFSLKLSSVTAADTAVYYCARKGTYYRYEGSYWYFDVWGQGTTVTVSS VL: DIQMTQSPSSLSASVGDRVTITCHANQNIDVWLSWYQQKPGKAPKLLIYKTSNLHTGVPSRFSGSGSGTDFTFTISSLQPEDIATYYCQQGQSYPLTFGGGTKLEIKR", "165000 M⁻¹ s⁻¹"),
    ("humanized anti-TRPM4 antibody clone A2 (VH1 + VL1) (antibody, human IgG1, kappa, V domains shown, also called VH1 + VL1 (A2)) VH: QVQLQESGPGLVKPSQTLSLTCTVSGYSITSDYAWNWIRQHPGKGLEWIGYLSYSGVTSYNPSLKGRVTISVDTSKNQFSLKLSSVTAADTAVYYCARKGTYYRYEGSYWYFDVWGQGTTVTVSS VL: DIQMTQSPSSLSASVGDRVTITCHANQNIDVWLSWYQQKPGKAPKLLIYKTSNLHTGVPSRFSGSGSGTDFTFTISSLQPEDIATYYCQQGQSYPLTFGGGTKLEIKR", "191000 M⁻¹ s⁻¹"),
]
